Molecular target: T1, Human Galectin-3 protein (Acro Biosystems, GA3-H5129) (human, UniProt P17931 2-250)
T1 construct: Bought protein; also called hGal3; Gal3; not shown: linker-spaced 6-histidine tag
T1 sequence (P17931 2-250): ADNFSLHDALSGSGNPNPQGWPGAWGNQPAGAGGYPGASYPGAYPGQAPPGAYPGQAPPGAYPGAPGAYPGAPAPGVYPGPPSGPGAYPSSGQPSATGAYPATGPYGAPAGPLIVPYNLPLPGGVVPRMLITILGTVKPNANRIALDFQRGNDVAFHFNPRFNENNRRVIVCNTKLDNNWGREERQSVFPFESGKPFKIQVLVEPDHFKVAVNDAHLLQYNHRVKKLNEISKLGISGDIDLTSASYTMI
Test: SPR Biacore T200, antibody captured, Galectin-3 analyte
Listed here are binders together with their documented pKd.
Please express pKd as -log10 of the molar concentration.

Examples from the recorded data:
{"binder": "6H6.2D6 (antibody, V domains shown, murine antibody) VH: QIQLVQSGPELKKPGETVKISCKASGYTFTTYGMSWVKQAPGKGLKWMAWINTYSGVPTYADDFKGRFAFSLETSASTAYLQINNLTNEDTATYFCARGPYAMDYWGQGTSVTVSS VL: DIQMTQTTSSLSASLGDRVTISCSASQGISNYLNWYQQKPDGTVKLLIYYTSSLHSGVPSRFSGSGSGTDYSLTISNLEPEDIATYYCQQYSELPYTFGSGTKLEIK", "pKd": 8.31}
{"binder": "846.2H3 (antibody, V domains shown, murine antibody) VH: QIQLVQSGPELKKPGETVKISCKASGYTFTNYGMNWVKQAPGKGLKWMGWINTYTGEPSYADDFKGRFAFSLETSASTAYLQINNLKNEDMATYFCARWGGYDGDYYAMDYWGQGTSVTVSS VL: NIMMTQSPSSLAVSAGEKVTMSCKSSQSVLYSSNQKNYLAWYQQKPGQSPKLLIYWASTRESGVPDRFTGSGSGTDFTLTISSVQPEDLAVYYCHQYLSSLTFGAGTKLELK", "pKd": 7.99}

// switching to the query binder
# input Consider the binder 24D12.2H9 (antibody, V domains shown, murine antibody) VH: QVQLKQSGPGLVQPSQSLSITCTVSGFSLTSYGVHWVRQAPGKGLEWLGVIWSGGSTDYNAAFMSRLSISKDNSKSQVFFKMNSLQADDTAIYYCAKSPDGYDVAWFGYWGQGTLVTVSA VL: DIVMTQSHKFMSTSVGDRVSITCKASQDVRTAVAWYQQKPGQSPKLLIYWASTRHTGVPDRFTGSGSGTDFTLTLSNVQSEDLADYFCQQYSSYPWTFGGGTKLEIK and give its measured pKd.
# output 8.38
